assay: Compound cytotoxicity, XTT-based colorimetric assay; format: cell-based; settings: human; uninfected MT2 cells, day 4, XTT
// reported CC50 at 4 days per item

| Compound | CC50 at 4 days |
| --- | --- |
| CC(C)(C)S(=O)(=O)c1ccccc1-c1ccc2c(=O)n(-c3ccc(Cl)c4c(NS(C)(=O)=O)nn(CC(F)F)c34)c([C@H](Cc3cc(F)cc(F)c3)NC(=O)Cn3nc(C(F)F)c4c3C(F)(F)[C@@H]3C[C@H]43)nc2c1 (atropisomer, axis not shown) [Example 130] | > 500 nM |
| COc1ccc(-c2ccc3c(=O)n(-c4ccc(Cl)c5c(NS(C)(=O)=O)nn(C)c45)c([C@H](Cc4cc(F)cc(F)c4)NC(=O)Cn4nc(C(F)F)c5c4C(F)(F)[C@@H]4C[C@H]54)nc3c2)nc1 (atropisomer, axis not shown; (P)) [Example 45] | > 500 nM |

* * *

assay: Compound cytotoxicity, XTT-based colorimetric assay; assay type: cell-based; conditions: human; uninfected MT2 cells, day 4, XTT
Items are presented alongside their recorded CC50 at 4 days.
Assay Readout: CC50 at 4 days

| Compound | Observed |
| --- | --- |
| Cc1cc(-c2ccc3c(=O)n(-c4ccc(Cl)c5c(NS(C)(=O)=O)nn(C)c45)c([C@H](Cc4cc(F)cc(F)c4)NC(=O)Cn4nc(C(F)F)c5c4C(F)(F)[C@@H]4C[C@H]54)nc3c2)nc(C)n1 (atropisomer, axis not shown; (P)) [Example 44] | > 500 nM |
| Cn1nc(NS(C)(=O)=O)c2c(Cl)ccc(-n3c([C@H](Cc4cc(F)cc(F)c4)NC(=O)Cn4nc(C(F)F)c5c4C(F)(F)[C@@H]4C[C@H]54)nc4cc(-c5ccnc(C(C)(C)C)n5)ccc4c3=O)c21 (atropisomer, axis not shown; (P)) [Example 72] | > 500 nM |

* * *

Reported CC50 at 4 days values for a set of compounds
Assay: Compound cytotoxicity, XTT-based colorimetric assay
Assay type: cell-based
Details: human; uninfected MT2 cells, day 4, XTT
Description: Compound cytotoxicity and the corresponding CC50 values were determined using the same protocol as described in the antiviral assay except that uninfected cells were used. Cytotoxicity was assessed on day 4 in uninfected MT2 cells by using a XTT (2,3-bis[2-Methoxy-4-nitro-5-sulfophenyl]-2H-tetrazolium-5-carboxyanilide inner salt)-based colorimetric assay (Sigma-Aldrich, St Louis, Mo.).
Assay Readout: CC50 at 4 days

| Compound | Observed |
| --- | --- |
| Cc1nnc(-c2ccc3c(=O)n(-c4ccc(Cl)c5c(NS(=O)(=O)C6CC6)nn(CC(F)F)c45)c([C@H](Cc4cc(F)cc(F)c4)NC(=O)Cn4nc(C(F)F)c5c4C(F)(F)[C@@H]4C[C@H]54)nc3c2)nc1C (atropisomer, axis not shown; (P)) | > 500 nM |
| Cn1nc(NS(C)(=O)=O)c2c(Cl)ccc(-n3c([C@H](Cc4cc(F)cc(F)c4)NC(=O)Cn4nc(C(F)F)c5c4C(F)(F)[C@@H]4C[C@H]54)nc4cc(-c5ccccc5OC(F)F)ccc4c3=O)c21 (atropisomer, axis not shown; (P)) | > 500 nM |

All values here come from patent US11541055B2.
